target: Coagulation factor X (Oryctolagus cuniculus); experiment: Compound was tested for its inhibitory activity against Coagulation factor X at a concentration of 0.1 uM
inhibition by entry:
I only need the number, in %, no unit after it.

Use these answered entries as a reference point.
Qu. Dear colleague, I am looking for the recorded inhibition of the following molecule: O=C1[C@@H](NS(=O)(=O)c2cc3ccc(Cl)cc3s2)CCN1CCNc1ccncc1
Ans. 57

Qu. Query O=C1[C@@H](NS(=O)(=O)c2ccc(-c3ccc(Cl)s3)s2)CCN1Cc1cc2c[nH]ccc-2n1 next
Ans. 62

Qu. Query O=C1[C@@H](NS(=O)(=O)c2ccc(-c3ccc(Cl)s3)s2)CCN1CCNc1ccncc1 next
Ans. 77

Continuing:
Qu. Dear colleague, I am looking for the recorded inhibition of the following molecule: O=C1[C@@H](NS(=O)(=O)c2cc3ccc(Cl)nc3s2)CCN1CCNc1ccncc1
Ans. 53

Qu. Query O=C1[C@@H](NS(=O)(=O)c2cc3ncccc3s2)CCN1Cc1cc2cc[nH]cc-2n1 next
Ans. 52

Qu. Query O=C1[C@@H](NS(=O)(=O)c2cc3ccc(Cl)cc3s2)CCN1Cc1cc2cc[nH]cc-2n1 next
Ans. 50

* * *

Molecular target: Coagulation factor X (Oryctolagus cuniculus)
Sequence (whole entry): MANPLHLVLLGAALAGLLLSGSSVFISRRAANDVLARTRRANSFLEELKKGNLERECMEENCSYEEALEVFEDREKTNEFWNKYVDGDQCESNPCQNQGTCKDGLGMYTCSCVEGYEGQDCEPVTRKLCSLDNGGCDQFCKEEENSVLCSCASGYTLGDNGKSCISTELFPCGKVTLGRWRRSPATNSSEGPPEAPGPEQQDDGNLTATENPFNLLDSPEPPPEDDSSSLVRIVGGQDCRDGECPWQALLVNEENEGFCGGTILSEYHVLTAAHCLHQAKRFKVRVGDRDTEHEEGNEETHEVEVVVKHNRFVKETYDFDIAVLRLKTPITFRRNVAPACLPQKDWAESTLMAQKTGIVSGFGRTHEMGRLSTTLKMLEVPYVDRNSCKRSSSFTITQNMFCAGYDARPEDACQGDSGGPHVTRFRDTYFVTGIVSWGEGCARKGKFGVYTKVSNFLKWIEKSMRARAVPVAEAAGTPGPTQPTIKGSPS
Test: Compound was tested for its inhibitory activity against Coagulation factor X at a concentration of 0.5 uM
Assign 1 (yes) whenever inhibition does not fall below 50%; assign 0 (no) whenever it does.

Qu. Please indicate if the recorded inhibition for O=C1[C@@H](NS(=O)(=O)c2cc3nc(Cl)ccc3s2)CCN1Cc1cc2[nH]cccc-2n1 meets or exceeds 50%.
Ans. 0 (no)

Qu. Query O=C1[C@@H](NS(=O)(=O)c2cc3ccc(Cl)cc3s2)CCN1Cc1cc2[nH]cccc-2n1 next
Ans. 1 (yes)

Qu. Query O=C1[C@@H](NS(=O)(=O)c2cc3ccc(Cl)cc3s2)CCN1Cc1cc2c[nH]ccc-2n1 next
Ans. 1 (yes)

Continuing:
Qu. Please indicate if the recorded inhibition for Cc1c(S(=O)(=O)N[C@H]2CCN(CCNc3ccncc3)C2=O)sc2cc(Cl)ccc12 meets or exceeds 50%.
Ans. 0 (no)

Qu. Query O=C1[C@@H](NS(=O)(=O)c2cc3ccnc(Cl)c3s2)CCN1Cc1cc2cc[nH]cc-2n1 next
Ans. 0 (no)

Qu. Query O=C1[C@@H](NS(=O)(=O)c2cc3cccnc3s2)CCN1Cc1cc2cc[nH]cc-2n1 next
Ans. 0 (no)

* * *

Molecular target: Coagulation factor X (Oryctolagus cuniculus)
Sequence (whole entry): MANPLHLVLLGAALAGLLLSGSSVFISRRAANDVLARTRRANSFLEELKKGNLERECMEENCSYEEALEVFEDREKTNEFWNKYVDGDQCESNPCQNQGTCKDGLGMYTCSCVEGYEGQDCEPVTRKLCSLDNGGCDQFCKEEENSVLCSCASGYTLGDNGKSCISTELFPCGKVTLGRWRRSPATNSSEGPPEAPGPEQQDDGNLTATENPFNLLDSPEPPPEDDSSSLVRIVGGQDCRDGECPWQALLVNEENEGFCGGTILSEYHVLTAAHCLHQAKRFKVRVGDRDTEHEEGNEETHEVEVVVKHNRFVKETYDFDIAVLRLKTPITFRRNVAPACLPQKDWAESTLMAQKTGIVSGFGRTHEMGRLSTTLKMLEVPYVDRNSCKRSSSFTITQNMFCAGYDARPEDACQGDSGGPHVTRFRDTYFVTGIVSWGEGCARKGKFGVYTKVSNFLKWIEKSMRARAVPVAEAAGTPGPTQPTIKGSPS
Assay: Inhibitory activity against coagulation factor X at a concentration of 1 uM
Assign MET whenever inhibition does not fall below 50%; assign NOT MET whenever it does.

Qu. Please indicate if the recorded inhibition for O=C1[C@@H](NS(=O)(=O)c2cc3ccc(Cl)nc3s2)CCN1Cc1cc2[nH]cccc-2n1 meets or exceeds 50%.
Ans. NOT MET

Qu. Query O=C1[C@@H](NS(=O)(=O)c2nc3cc(Cl)ccc3[nH]2)CCN1Cc1cc2[nH]cccc-2n1 next
Ans. NOT MET

Qu. Query O=C1[C@@H](NS(=O)(=O)c2ccc(-c3ccncc3)s2)CCN1Cc1cc2c[nH]ccc-2n1 next
Ans. NOT MET

Continuing:
Qu. Please indicate if the recorded inhibition for O=C1[C@@H](NS(=O)(=O)c2nc3cc(Cl)ccc3[nH]2)CCN1Cc1cc2c[nH]ccc-2n1 meets or exceeds 50%.
Ans. NOT MET

Qu. Query O=C1[C@@H](NS(=O)(=O)c2cc3ncccc3s2)CCN1Cc1cc2c[nH]ccc-2n1 next
Ans. MET

Qu. Query O=C1[C@@H](NS(=O)(=O)c2cc3c(Cl)nccc3s2)CCN1CCNc1ccncc1 next
Ans. NOT MET

Qu. Query O=C1[C@@H](NS(=O)(=O)c2cc3nc(Cl)ccc3s2)CCN1Cc1cc2c[nH]ccc-2n1 next
Ans. MET

* * *

biological target: Coagulation factor X (Oryctolagus cuniculus) (UniProt O19045); experiment: Inhibitory activity against coagulation factor X at a concentration of 1 uM
inhibition by entry:

Qu. Dear colleague, I am looking for the recorded inhibition of the following compound: O=C1[C@@H](NS(=O)(=O)c2ccc(-c3ccon3)s2)CCN1CCNc1ccncc1
Ans. 22%

Qu. Query O=C1[C@@H](NS(=O)(=O)c2ccc(-c3ccccn3)s2)CCN1CCNc1ccncc1 next
Ans. 18%

Qu. Query O=C1[C@@H](NS(=O)(=O)c2cc3cccnc3s2)CCN1CCNc1ccncc1 next
Ans. 23%

Qu. Query O=C1[C@@H](NS(=O)(=O)c2ccc(-c3ccon3)s2)CCN1Cc1cc2[nH]cccc-2n1 next
Ans. 31%

Qu. Query O=C1[C@@H](NS(=O)(=O)c2nc3cc(Cl)ccc3[nH]2)CCN1CCNc1ccncc1 next
Ans. 29%

Continuing:
Qu. Dear colleague, I am looking for the recorded inhibition of the following compound: O=C1[C@@H](NS(=O)(=O)c2ccc(-c3ccon3)s2)CCN1Cc1cc2cc[nH]cc-2n1
Ans. 49%

Qu. Query Cc1c(S(=O)(=O)N[C@H]2CCN(Cc3cc4[nH]cccc-4n3)C2=O)sc2ccc(Cl)cc12 next
Ans. 40%

Qu. Query CC(C)(C)c1ccc(S(=O)(=O)N[C@H]2CCN(Cc3cc4[nH]cccc-4n3)C2=O)cc1 next
Ans. 22%
